Hey, just so you know, these numbers are from PubChem BioAssay.

# Test system: Neuregulin-1 EGF-like domain
# assayDetails: binders of neuregulin-1 EGF-like domain, primary screen, biochemical, small-molecule microarray, 635 nm fluorescence (AID 1081);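 note: binding of the protein to compounds printed on small-molecule microarray slides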
# testContext: small-molecule microarray binding, higher = more signal
Below, each entry is listed alongside its reported composite z-score.
Please respond with just the number, no unit label.

chemsmiles=CO[C@H]1O[C@H](CO)[C@@H](OC(=O)Nc2ccccc2-c2ccccc2)[C@H](OC(=O)Nc2ccc3c(c2)OCO3)[C@@H]1OC(=O)Nc1ccc2c(c1)OCO2 assayreadout="composite z-score" testresult=1.4

Query: composite z-score for "CON(C)C(=O)C=C1C[C@@H](c2cccc(Cl)c2)O[C@@H](c2cccc(Cl)c2)O1" ?
Reply: 0.524

Query: composite z-score for "COCC(=C=CC[C@H](O)c1ccc(OCCO)cc1)C[C@H](O)COCc1ccccc1" ?
Reply: 1.03

Query: composite z-score for "C=C(CCCC)C(=O)CC[C@@H](OC(=O)c1ccccc1-c1ccccc1C(=O)O)c1cccc(OCCO)c1" ?
Reply: 0.742

Query: composite z-score for "O=C1O[C@@H](c2ccccc2)[C@@H](c2ccccc2)N2[C@@H](c3ccc(O)cc3)[C@]3(C(=O)Nc4ccc(C#CCCO)cc43)[C@@H](C(=O)Nc3nc4ccccc4s3)[C@H]12" ?
Reply: 1.19

Query: composite z-score for "O=C(O)[C@]1(Cc2ccccc2)N=C(c2ccc(OCCCO)cc2)O[C@@H]1c1ccccc1" ?
Reply: 0.847

Query: composite z-score for "C=CC[C@@]12N=C(c3ccc(OCCCO)cc3)O[C@@H]1c1ccccc1N(CCS(=O)(=O)c1ccccc1)C2=O" ?
Reply: 1.32
